Recorded values, source ChEMBL document CHEMBL1157642.

MEASUREMENT_TARGET: Adenosine receptor A2a (Cavia porcellus)
Sequence (P46616 whole entry): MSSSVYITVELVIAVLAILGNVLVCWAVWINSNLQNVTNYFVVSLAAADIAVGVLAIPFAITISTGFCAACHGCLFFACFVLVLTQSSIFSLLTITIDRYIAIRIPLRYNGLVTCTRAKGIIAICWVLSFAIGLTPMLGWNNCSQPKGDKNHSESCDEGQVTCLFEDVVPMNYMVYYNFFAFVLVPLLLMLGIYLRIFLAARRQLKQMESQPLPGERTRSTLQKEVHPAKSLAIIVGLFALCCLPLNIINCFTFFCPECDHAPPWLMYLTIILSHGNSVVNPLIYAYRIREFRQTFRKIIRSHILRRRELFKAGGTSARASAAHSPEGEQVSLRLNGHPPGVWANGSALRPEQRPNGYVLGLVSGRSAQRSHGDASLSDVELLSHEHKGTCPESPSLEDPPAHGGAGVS
QUANTITY_MEASURED: IC50 (µM)
The figure you give is taken to be in µM; do not add the unit.

Prompt: What value of IC50 has been reported for the following molecule? O=C(/C=C/c1c(-c2ccccc2)nn2ccccc12)N1CCCC[C@@H]1CCO
Completion: 1.18

====

Reported pIC50 values follow for various compounds
MEASUREMENT_TARGET: Adenosine receptor A1 (Rattus norvegicus, UniProt P25099)
Sequence (P25099 whole entry): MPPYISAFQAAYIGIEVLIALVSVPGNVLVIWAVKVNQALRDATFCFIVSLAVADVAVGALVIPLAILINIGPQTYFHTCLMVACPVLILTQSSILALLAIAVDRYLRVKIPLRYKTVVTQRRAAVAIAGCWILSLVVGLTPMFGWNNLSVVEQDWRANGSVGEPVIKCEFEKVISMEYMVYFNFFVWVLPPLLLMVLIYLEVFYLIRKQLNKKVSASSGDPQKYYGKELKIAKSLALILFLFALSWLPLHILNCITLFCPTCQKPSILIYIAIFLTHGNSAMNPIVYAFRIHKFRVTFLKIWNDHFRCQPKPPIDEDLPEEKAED
ASSAY_TEXT: Displacement of [3H]DPCPX from adenosine A1 receptor in rat brain cortical membrane in presence of 100 uM GTP
Type: cell membranes
pIC50 field: float, defined as -log10 of concentration (mol/L).

>>> value_observed("Cc1ccc(C(=O)c2sc(NC(=O)c3ccccc3)nc2-c2ccccc2)cc1")
7.65

Kindly consider the entry below.
Prompt: I am curious: what pIC50 value has been reported for O=C(Nc1nc(-c2ccccc2)c(C(=O)c2ccccc2)s1)c1ccco1 ?
Completion: 7.54

====

MEASUREMENT_TARGET: Adenosine receptor A2a (Homo sapiens, UniProt P29274)
Sequence (P29274 whole entry): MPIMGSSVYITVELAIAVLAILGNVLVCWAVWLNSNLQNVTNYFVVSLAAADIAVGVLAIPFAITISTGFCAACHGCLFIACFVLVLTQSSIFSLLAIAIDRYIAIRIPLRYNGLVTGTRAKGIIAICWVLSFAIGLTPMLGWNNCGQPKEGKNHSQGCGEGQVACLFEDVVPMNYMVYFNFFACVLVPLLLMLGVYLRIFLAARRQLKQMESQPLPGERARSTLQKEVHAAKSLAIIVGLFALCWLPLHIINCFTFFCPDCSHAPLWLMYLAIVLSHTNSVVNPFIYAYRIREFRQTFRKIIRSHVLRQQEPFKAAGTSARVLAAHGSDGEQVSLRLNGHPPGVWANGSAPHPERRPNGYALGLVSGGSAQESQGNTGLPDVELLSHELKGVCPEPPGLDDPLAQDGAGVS
QUANTITY_MEASURED: Ki

Prompt: What reported Ki corresponds to COc1cc(-c2nc(NC(C)=O)sc2-c2ccncc2)cc(OC)c1OC on Adenosine receptor A2a (Homo sapiens, UniProt P29274)?
Completion: > 10 µM

====

MEASUREMENT_TARGET: Adenosine receptor A3 (Rattus norvegicus)
Sequence (P28647 whole entry): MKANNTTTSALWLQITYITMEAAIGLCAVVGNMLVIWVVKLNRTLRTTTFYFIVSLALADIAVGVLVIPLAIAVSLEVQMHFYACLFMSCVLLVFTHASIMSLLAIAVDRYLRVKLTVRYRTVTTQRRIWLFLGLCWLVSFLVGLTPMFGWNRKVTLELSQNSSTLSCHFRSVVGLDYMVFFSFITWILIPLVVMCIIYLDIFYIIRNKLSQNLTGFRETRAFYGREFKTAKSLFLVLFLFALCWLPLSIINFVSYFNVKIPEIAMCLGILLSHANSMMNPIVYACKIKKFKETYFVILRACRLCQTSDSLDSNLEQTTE
QUANTITY_MEASURED: Ki (µM)
Give the value, in units of µM, as a plain number.

Prompt: Suppose we examine the compound Cn1c(=O)c2[nH]cnc2n(C)c1=O [THEOPHYLLINE] ; what Ki value has been reported?
Completion: 85

====

MEASUREMENT_TARGET: Adenosine receptor A1 (Rattus norvegicus, UniProt P25099)
ASSAY_TEXT: Displacement of [3H]DPCPX from adenosine A1 receptor in rat brain cortical membrane in absence of 100 uM GTP
Type: cell membranes
Entries and their IC50 values follow.
Expressed in nM, but write only the number.

>>> value_observed("Cc1ccc(C(=O)c2sc(NC(=O)c3ccccc3)nc2-c2ccccc2)cc1")
22.1

Let us move to another entry and its IC50.
Prompt: May I ask what IC50 has been recorded for O=C(Nc1nc(-c2ccccc2)c(C(=O)c2ccccc2)s1)c1ccco1 ?
Completion: 25.4

====

Ki values by entry
MEASUREMENT_TARGET: Adenosine receptor A3 (Homo sapiens, UniProt P0DMS8)
Sequence (P0DMS8 whole entry): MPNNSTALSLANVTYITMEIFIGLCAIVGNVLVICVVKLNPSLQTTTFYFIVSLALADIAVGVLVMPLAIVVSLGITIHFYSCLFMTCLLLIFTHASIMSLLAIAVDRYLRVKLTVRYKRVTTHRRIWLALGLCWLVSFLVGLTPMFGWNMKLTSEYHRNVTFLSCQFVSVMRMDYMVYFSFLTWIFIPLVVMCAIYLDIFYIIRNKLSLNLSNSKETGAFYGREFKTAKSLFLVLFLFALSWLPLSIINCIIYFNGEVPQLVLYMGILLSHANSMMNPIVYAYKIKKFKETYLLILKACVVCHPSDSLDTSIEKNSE
ASSAY_TEXT: biochemical
Description: Displacement of [3H]PSB-11 from human adenosine A3 receptor expressed in CHO cells

Example entries begin here.
>>> value_observed("COc1ccc(C(=O)c2sc(NC(=O)c3ccccc3)nc2-c2ccccc2)cc1")
"1 µM"
>>> value_observed("CNc1nc(-c2ccccc2)c(C(=O)c2ccc(Cl)cc2)s1")
"> 1 µM"
>>> value_observed("O=C(Nc1nc(-c2ccccc2)c(C(=O)c2ccccc2)s1)c1ccco1")
"0.208 µM"
>>> value_observed("Cc1ccc(C(=O)c2sc(Nc3ccccc3)nc2-c2ccccc2)cc1")
"> 1 µM"
>>> value_observed("CS(=O)(=O)c1ccc(C(=O)c2sc(NC(=O)c3ccccc3)nc2-c2ccccc2)cc1")
"> 1 µM"

From here, focus on the item given below.
Prompt: Which value of Ki has been reported for CNc1nc(-c2ccccc2)c(C(=O)c2ccc(OC)cc2)s1 in the records?
Completion: > 1 µM

====

MEASUREMENT_TARGET: Adenosine receptor A2a (Rattus norvegicus, UniProt P30543)
Sequence (P30543 whole entry): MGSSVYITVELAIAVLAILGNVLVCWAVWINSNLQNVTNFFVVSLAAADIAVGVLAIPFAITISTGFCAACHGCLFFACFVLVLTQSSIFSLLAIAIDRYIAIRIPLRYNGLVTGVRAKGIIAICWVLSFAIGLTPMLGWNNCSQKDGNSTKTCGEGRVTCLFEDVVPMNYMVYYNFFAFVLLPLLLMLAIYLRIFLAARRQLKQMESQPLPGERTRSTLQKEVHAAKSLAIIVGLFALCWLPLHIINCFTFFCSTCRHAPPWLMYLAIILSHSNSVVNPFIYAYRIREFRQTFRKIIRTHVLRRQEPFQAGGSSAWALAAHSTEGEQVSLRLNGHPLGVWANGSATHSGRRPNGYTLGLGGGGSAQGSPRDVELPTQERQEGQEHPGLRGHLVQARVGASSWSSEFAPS
pKi: −log10 of the molar value.
Quick list: pKi per entry.

The examples below pair each entry with its known result.
>>> value_observed("OC[C@H]1O[C@@H](n2cnc3c(NC4CCCC4)ncnc32)[C@H](O)[C@@H]1O [N6-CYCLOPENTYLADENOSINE]")
5.61
>>> value_observed("O=C(Nc1nc(-c2ccccc2)c(C(=O)c2ccccc2)s1)c1ccccc1")
5.52

Prompt: Under Adenosine receptor A2a (Rattus norvegicus, UniProt P30543): pKi value of CCOC(=O)Nc1nc(-c2ccccc2)c(C(=O)c2ccc(Cl)cc2)s1 ?
Completion: < 6.00

====

MEASUREMENT_TARGET: Adenosine receptor A1 (Cavia porcellus)
Sequence (P47745 whole entry): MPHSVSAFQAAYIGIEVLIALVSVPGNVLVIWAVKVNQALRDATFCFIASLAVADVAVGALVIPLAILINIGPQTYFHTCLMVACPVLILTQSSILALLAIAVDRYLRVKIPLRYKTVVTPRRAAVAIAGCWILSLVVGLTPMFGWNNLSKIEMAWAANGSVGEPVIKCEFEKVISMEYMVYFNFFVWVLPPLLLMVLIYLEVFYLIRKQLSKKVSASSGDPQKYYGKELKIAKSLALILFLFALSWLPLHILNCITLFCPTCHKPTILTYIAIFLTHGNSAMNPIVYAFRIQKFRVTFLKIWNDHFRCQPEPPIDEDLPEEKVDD
QUANTITY_MEASURED: IC50 (nM)
The reply should be a number in nM, with the unit left off.

Prompt: Name the reported IC50 value associated with the compound O=C(/C=C/c1c(-c2ccccc2)nn2ccccc12)N1CCCC[C@@H]1CCO [FK453]
Completion: 0.56

====

The following molecules each carry a recorded Ki for Adenosine receptor A2a (Rattus norvegicus, UniProt P30543).

Look over these answered cases.
>>> value_observed("O=C(Nc1nc(-c2ccccc2)c(C(=O)c2ccccc2)s1)c1ccco1")
"662 nM"
>>> value_observed("Cc1ccc(C(=O)c2sc(Nc3ccccc3)nc2-c2ccccc2)cc1")
"> 1000 nM"
>>> value_observed("CNc1nc(-c2ccccc2)c(C(=O)c2ccc(Cl)cc2)s1")
"> 1000 nM"
>>> value_observed("CCOC(=O)Nc1nc(-c2ccccc2)c(C(=O)c2ccc(OC)cc2)s1")
"1840 nM"
>>> value_observed("Cc1ccc(C(=O)c2sc(NC(=O)c3ccccc3)nc2-c2ccccc2)cc1")
"> 1000 nM"

Prompt: So what Ki did CNc1nc(-c2ccccc2)c(C(=O)c2ccccc2)s1 get with Adenosine receptor A2a (Rattus norvegicus, UniProt P30543)?
Completion: > 1000 nM

Prompt: Please provide the recorded Ki for CNc1nc(-c2ccccc2)c(C(=O)c2ccc(OC)cc2)s1 , tested on Adenosine receptor A2a (Rattus norvegicus, UniProt P30543).
Completion: > 1000 nM

Prompt: Can you look up Ki on Adenosine receptor A2a (Rattus norvegicus, UniProt P30543) for O=C(c1ccccc1)c1sc(Nc2ccccc2)nc1-c1ccccc1 ?
Completion: > 1000 nM

Prompt: Requested read-out Ki, target or system Adenosine receptor A2a (Rattus norvegicus, UniProt P30543), entry CS(=O)(=O)c1ccc(C(=O)c2sc(NC(=O)c3ccccc3)nc2-c2ccccc2)cc1
Completion: > 1000 nM

====

Examples of compounds with documented pKi follow.
MEASUREMENT_TARGET: Adenosine receptor A2a (Rattus norvegicus)
pKi: −log10 of the molar value.

>>> value_observed("COc1ccc(C(=O)c2sc(NC(=O)c3ccccc3)nc2-c2ccccc2)cc1")
"< 6.00"
>>> value_observed("Cc1ccc(C(=O)Nc2nc(-c3ccccc3)c(C(=O)c3ccccc3)s2)cc1")
"< 6.00"
>>> value_observed("O=C(Nc1nc(-c2ccccc2)c(C(=O)c2ccc(Cl)cc2)s1)c1ccco1")
"< 6.00"
>>> value_observed("CCOC(=O)Nc1nc(-c2ccccc2)c(C(=O)c2ccccc2)s1")
5.79
>>> value_observed("Cc1ccc(C(=O)Nc2nc(-c3ccccc3)c(C(=O)c3ccc(Cl)cc3)s2)cc1")
"< 6.00"

Now turn to the next compound.
Prompt: Give recorded pKi with Adenosine receptor A2a (Rattus norvegicus) for the following compound: CS(=O)(=O)c1ccc(C(=O)c2sc(Nc3ccccc3)nc2-c2ccccc2)cc1
Completion: < 6.00
